- TEST: Antioxidant activity assessed as hydroxyl ion scavenging activity measured as MDA formation at 200 ug/ml after 90 mins by spectrophotometry relative to control
- Format: functional
Rule: T for Activity not less than 40%, F for anything less.

[[record]]
molecule = "CCOC(=O)CCCOc1ccc(C(=O)/C=C/c2c[nH]c3ccccc23)cc1"
class = "F"

[[record]]
molecule = "CCOC(=O)C(C)(C)Oc1ccc(C(=O)/C=C/c2c[nH]c3ccccc23)cc1"
class = "F"


Query: Threshold query (Activity >= 40%) on `COC(=O)CCCOc1ccc(C(=O)/C=C/c2c[nH]c3ccccc23)cc1`
Result: F

Query: Hi team, for CCC(Oc1ccc(C(=O)/C=C/c2c(C)[nH]c3ccccc23)cc1)C(=O)OC (stereo unspecified) , is the recorded Activity at or above 40%?
Result: F

Query: // inclusive: Activity at least 40%? input: `OC[C@@H](O)[C@@H](O)[C@H](O)[C@H](O)CO`
Result: T
